- assay_info: molar heat capacity at constant pressure
- condition_set: 311.15 K; 101.33 kPa; Liquid; Large sample (1 g) DSC
Hi there, I'd appreciate the recorded molar heat capacity at constant pressure for every entry that follows.
Write the answer as a number in J/K/mol, unit excluded.

Form field molar heat capacity at constant pressure, entry CCCCn1cc[n+](C)c1.N#CN=C=[N-] [1-butyl-3-methylimidazolium dicyanamide] : 382

Form field molar heat capacity at constant pressure, entry "CC[n+]1cccc(C)c1.O=S(=O)([N-]S(=O)(=O)C(F)(F)F)C(F)(F)F" : 504

Form field molar heat capacity at constant pressure, entry "CCC[n+]1cccc(C)c1.O=S(=O)([N-]S(=O)(=O)C(F)(F)F)C(F)(F)F" : 530

Form field molar heat capacity at constant pressure, entry "CCCC[n+]1cccc(C)c1.O=S(=O)([N-]S(=O)(=O)C(F)(F)F)C(F)(F)F" : 562

###

- condition_set: Glass; DTA
Hi there, I'd appreciate the recorded Glass transition temperature for every entry that follows.
Write the answer as a number in °C, unit excluded.

Form field Glass transition temperature, entry CCCCn1cc[n+](C)c1.N#CN=C=[N-] [1-butyl-3-methylimidazolium dicyanamide] : -92

Form field Glass transition temperature, entry "CCCC[n+]1cccc(C)c1.O=S(=O)([N-]S(=O)(=O)C(F)(F)F)C(F)(F)F" : -85

Form field Glass transition temperature, entry CCCC[n+]1cccc(C)c1.O=S(=O)([O-])C(F)(F)F [1-butyl-3-methylpyridinium trifluoromethanesulfonate] : -76

Form field Glass transition temperature, entry "CCC[n+]1cccc(C)c1.O=S(=O)([N-]S(=O)(=O)C(F)(F)F)C(F)(F)F" : -88

###

- assay_info: molar heat capacity at constant pressure
- condition_set: 301.15 K; 101.33 kPa; Liquid; Large sample (1 g) DSC
Hi there, I'd appreciate the recorded molar heat capacity at constant pressure for every entry that follows.
Write the answer as a number in J/K/mol, unit excluded.

Form field molar heat capacity at constant pressure, entry CCCCn1cc[n+](C)c1.N#CN=C=[N-] [1-butyl-3-methylimidazolium dicyanamide] : 378

Form field molar heat capacity at constant pressure, entry "CC[n+]1cccc(C)c1.O=S(=O)([N-]S(=O)(=O)C(F)(F)F)C(F)(F)F" : 495

Form field molar heat capacity at constant pressure, entry "CCC[n+]1cccc(C)c1.O=S(=O)([N-]S(=O)(=O)C(F)(F)F)C(F)(F)F" : 520

Form field molar heat capacity at constant pressure, entry "CCCC[n+]1cccc(C)c1.O=S(=O)([N-]S(=O)(=O)C(F)(F)F)C(F)(F)F" : 552

###

- assay_info: molar heat capacity at constant pressure
- condition_set: 317.15 K; 101.33 kPa; Liquid; Large sample (1 g) DSC
measure_name: molar heat capacity at constant pressure (J/K/mol)
Write the answer as a number in J/K/mol, unit excluded.

Form field molar heat capacity at constant pressure, entry "CC[n+]1cccc(C)c1.O=S(=O)([N-]S(=O)(=O)C(F)(F)F)C(F)(F)F" : 509

Form field molar heat capacity at constant pressure, entry CCCCn1cc[n+](C)c1.N#CN=C=[N-] [1-butyl-3-methylimidazolium dicyanamide] : 385

Form field molar heat capacity at constant pressure, entry "CCC[n+]1cccc(C)c1.O=S(=O)([N-]S(=O)(=O)C(F)(F)F)C(F)(F)F" : 535

Form field molar heat capacity at constant pressure, entry "CCCC[n+]1cccc(C)c1.O=S(=O)([N-]S(=O)(=O)C(F)(F)F)C(F)(F)F" : 567

###

Hi there, I'd appreciate the recorded molar heat capacity at constant pressure for every entry that follows.
- assay_info: molar heat capacity at constant pressure
- condition_set: 302.15 K; 101.33 kPa; Liquid; Large sample (1 g) DSC
Write the answer as a number in J/K/mol, unit excluded.

Form field molar heat capacity at constant pressure, entry CCCCn1cc[n+](C)c1.N#CN=C=[N-] [1-butyl-3-methylimidazolium dicyanamide] : 378

Form field molar heat capacity at constant pressure, entry "CCCC[n+]1cccc(C)c1.O=S(=O)([N-]S(=O)(=O)C(F)(F)F)C(F)(F)F" : 553

Form field molar heat capacity at constant pressure, entry "CC[n+]1cccc(C)c1.O=S(=O)([N-]S(=O)(=O)C(F)(F)F)C(F)(F)F" : 496

Form field molar heat capacity at constant pressure, entry "CCC[n+]1cccc(C)c1.O=S(=O)([N-]S(=O)(=O)C(F)(F)F)C(F)(F)F" : 521

###

- assay_info: molar heat capacity at constant pressure
- condition_set: 330.15 K; 101.33 kPa; Liquid; Large sample (1 g) DSC
measure_name: molar heat capacity at constant pressure (J/K/mol)
Write the answer as a number in J/K/mol, unit excluded.

Form field molar heat capacity at constant pressure, entry "CCCC[n+]1cccc(C)c1.O=S(=O)([N-]S(=O)(=O)C(F)(F)F)C(F)(F)F" : 579

Form field molar heat capacity at constant pressure, entry "CCC[n+]1cccc(C)c1.O=S(=O)([N-]S(=O)(=O)C(F)(F)F)C(F)(F)F" : 546

Form field molar heat capacity at constant pressure, entry CCCCn1cc[n+](C)c1.N#CN=C=[N-] [1-butyl-3-methylimidazolium dicyanamide] : 390

Form field molar heat capacity at constant pressure, entry "CC[n+]1cccc(C)c1.O=S(=O)([N-]S(=O)(=O)C(F)(F)F)C(F)(F)F" : 519

Form field molar heat capacity at constant pressure, entry CCCCn1cc[n+](C)c1.O=S(=O)([O-])C(F)(F)F [1-butyl-3-methylimidazolium trifluoromethanesulfonate] : 463

Form field molar heat capacity at constant pressure, entry CCCC[n+]1cccc(C)c1.O=S(=O)([O-])C(F)(F)F [1-butyl-3-methylpyridinium trifluoromethanesulfonate] : 471

###

Hi there, I'd appreciate the recorded molar heat capacity at constant pressure for every entry that follows.
- assay_info: molar heat capacity at constant pressure
- condition_set: 314.15 K; 101.33 kPa; Liquid; Large sample (1 g) DSC
Write the answer as a number in J/K/mol, unit excluded.

Form field molar heat capacity at constant pressure, entry "CCC[n+]1cccc(C)c1.O=S(=O)([N-]S(=O)(=O)C(F)(F)F)C(F)(F)F" : 532

Form field molar heat capacity at constant pressure, entry "CC[n+]1cccc(C)c1.O=S(=O)([N-]S(=O)(=O)C(F)(F)F)C(F)(F)F" : 507

Form field molar heat capacity at constant pressure, entry "CCCC[n+]1cccc(C)c1.O=S(=O)([N-]S(=O)(=O)C(F)(F)F)C(F)(F)F" : 564

Form field molar heat capacity at constant pressure, entry CCCCn1cc[n+](C)c1.N#CN=C=[N-] [1-butyl-3-methylimidazolium dicyanamide] : 384

###

- assay_info: molar heat capacity at constant pressure
- condition_set: 333.15 K; 101.33 kPa; Liquid; Large sample (1 g) DSC
measure_name: molar heat capacity at constant pressure (J/K/mol)
Write the answer as a number in J/K/mol, unit excluded.

Form field molar heat capacity at constant pressure, entry CCCCn1cc[n+](C)c1.O=S(=O)([O-])C(F)(F)F [1-butyl-3-methylimidazolium trifluoromethanesulfonate] : 466

Form field molar heat capacity at constant pressure, entry CCCCn1cc[n+](C)c1.N#CN=C=[N-] [1-butyl-3-methylimidazolium dicyanamide] : 392

Form field molar heat capacity at constant pressure, entry "CCC[n+]1cccc(C)c1.O=S(=O)([N-]S(=O)(=O)C(F)(F)F)C(F)(F)F" : 549

Form field molar heat capacity at constant pressure, entry "CCCC[n+]1cccc(C)c1.O=S(=O)([N-]S(=O)(=O)C(F)(F)F)C(F)(F)F" : 582
